# EXPERIMENTAL_DETAILS: Therapeutic index, ratio of TC50 for mouse NIH/3T3 cells by neutral red assay to ED50 for human PC3 cells
# Assay type: cell-based, PC-3
# PARTICULARS: NIH/3T3 cells versus PC3 cells, read-out: TI
MEASURED_PARAMETER: selectivity ratio
The response must contain the number and no unit.

Sample CCCCCCCC/C=C/c1c(C)c(/C=C/CCCCCCCC)c2[n+](c1C)CCCC2 — what was its selectivity ratio? 35.8

Sample CCCCCCCC/C=C\c1c(C)c(/C=C\CCCCCCCC)c2[n+](c1C)CCCC2 — what was its selectivity ratio? 67.9

Sample CCCCCCCC/C=C\c1c(C)c(/C=C\CCCCCCCC)c2[n+](c1C)CCC2 — what was its selectivity ratio? 20
